- target_entity: Aryl hydrocarbon receptor (Rattus norvegicus)
- Sequence (P41738 10-853): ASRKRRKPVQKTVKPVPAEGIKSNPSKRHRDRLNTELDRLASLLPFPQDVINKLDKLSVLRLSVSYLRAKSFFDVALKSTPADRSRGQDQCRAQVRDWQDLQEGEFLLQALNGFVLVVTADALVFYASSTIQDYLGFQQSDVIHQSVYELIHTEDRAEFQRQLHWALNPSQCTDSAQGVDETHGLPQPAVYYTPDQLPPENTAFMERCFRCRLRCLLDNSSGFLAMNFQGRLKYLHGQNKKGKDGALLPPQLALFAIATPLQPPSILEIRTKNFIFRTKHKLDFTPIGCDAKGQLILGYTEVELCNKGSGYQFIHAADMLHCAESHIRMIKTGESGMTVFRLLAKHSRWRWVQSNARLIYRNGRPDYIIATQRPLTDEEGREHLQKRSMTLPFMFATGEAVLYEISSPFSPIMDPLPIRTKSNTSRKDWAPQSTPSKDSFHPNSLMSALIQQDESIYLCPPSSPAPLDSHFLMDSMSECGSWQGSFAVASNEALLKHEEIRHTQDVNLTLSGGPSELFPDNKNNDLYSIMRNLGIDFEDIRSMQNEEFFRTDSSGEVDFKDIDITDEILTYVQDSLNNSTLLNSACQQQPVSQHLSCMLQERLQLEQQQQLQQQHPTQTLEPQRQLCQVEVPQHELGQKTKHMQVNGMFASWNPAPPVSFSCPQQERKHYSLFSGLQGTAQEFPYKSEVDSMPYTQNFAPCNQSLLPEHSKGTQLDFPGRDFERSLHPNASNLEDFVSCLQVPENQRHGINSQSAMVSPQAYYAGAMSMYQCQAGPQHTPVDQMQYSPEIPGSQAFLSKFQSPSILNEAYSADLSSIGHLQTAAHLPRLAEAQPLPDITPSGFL
- cond: Bioassay AhR; dosing range all; linear model fit
assay_endpoint: EC10, linear

Use these answered entries as a reference point.
CC(C)(c1ccc(OCC2CO2)cc1)c1ccc(OCC2CO2)cc1 (stereo not drawn) = no effect
CC(C)(c1ccc(O)c(-c2ccccc2)c1)c1ccc(O)c(-c2ccccc2)c1 [BPPH, 2,2-Bis(2-hydroxy-5-biphenylyl)propane] = 9.54E-06
O=S(=O)(c1ccc(O)cc1)c1ccccc1O [2,4-BPS, 2,4'-Dihydroxydiphenyl sulfone] = no effect
CC1(C)[C@H](O)C(C)(C)[C@H]1O [Trans TMCD] = no effect
CC(C)Oc1ccc(S(=O)(=O)c2ccc(O)cc2)cc1 = no effect

Prompt line: Quick one: give measured EC10, linear for CCC(C)(c1ccc(O)cc1)c1ccc(O)cc1
Response line: no effect

Prompt line: Quick one: give measured EC10, linear for CC(c1ccc(O)cc1)c1ccc(O)cc1
Response line: 6.19E-05

Prompt line: Quick one: give measured EC10, linear for CC(C)CC(C)(c1ccc(O)cc1)c1ccc(O)cc1
Response line: no effect

Prompt line: Quick one: give measured EC10, linear for Oc1ccc(C(c2ccc(O)cc2)(C(F)(F)F)C(F)(F)F)cc1
Response line: no effect

Prompt line: Quick one: give measured EC10, linear for Oc1ccc(Cc2ccc(O)cc2)cc1 [BPF, Bis(4-hydroxyphenyl)methane]
Response line: 1.67E-04

Prompt line: Quick one: give measured EC10, linear for CC(c1ccccc1)(c1ccc(O)cc1)c1ccc(O)cc1
Response line: no effect

====

- Tested on: MCF7 (ARE/MMP)
- cond: Bioassay ARE; cytotoxicity; dosing range all; log-logistic model fit
assay_endpoint: logIC10

Oc1ccc(Sc2ccc(O)cc2)cc1 [BPT, 4,4'-Thiodiphenol] = -3.76
C=CCOc1ccc(S(=O)(=O)c2ccc(O)cc2)cc1 [BPS-MAE, 4-[[4-(Allyloxy)phenyl]sulfonyl]phenol] = -3.41
CC(C)(c1cc(Cl)c(O)c(Cl)c1)c1cc(Cl)c(O)c(Cl)c1 [TCBPA, 2,2',6,6'-Tetrachlorobisphenol A] = -4.11

Shift focus to the following entry.
Prompt line: Quick one: give measured logIC10 for O=C(OCc1ccccc1)c1ccc(O)cc1 [BzPB, Benzyl 4-hydroxybenzoate]
Response line: -4.05
